- study-target: Mre11 K111E;Rad50 full-length (Pyrococcus furiosus;Pyrococcus furiosus, UniProt Q8U1N9;P58301 1-426;1-882, K111E|)
- Sequence (P58301 whole entry, stated change not applied, one chain of several): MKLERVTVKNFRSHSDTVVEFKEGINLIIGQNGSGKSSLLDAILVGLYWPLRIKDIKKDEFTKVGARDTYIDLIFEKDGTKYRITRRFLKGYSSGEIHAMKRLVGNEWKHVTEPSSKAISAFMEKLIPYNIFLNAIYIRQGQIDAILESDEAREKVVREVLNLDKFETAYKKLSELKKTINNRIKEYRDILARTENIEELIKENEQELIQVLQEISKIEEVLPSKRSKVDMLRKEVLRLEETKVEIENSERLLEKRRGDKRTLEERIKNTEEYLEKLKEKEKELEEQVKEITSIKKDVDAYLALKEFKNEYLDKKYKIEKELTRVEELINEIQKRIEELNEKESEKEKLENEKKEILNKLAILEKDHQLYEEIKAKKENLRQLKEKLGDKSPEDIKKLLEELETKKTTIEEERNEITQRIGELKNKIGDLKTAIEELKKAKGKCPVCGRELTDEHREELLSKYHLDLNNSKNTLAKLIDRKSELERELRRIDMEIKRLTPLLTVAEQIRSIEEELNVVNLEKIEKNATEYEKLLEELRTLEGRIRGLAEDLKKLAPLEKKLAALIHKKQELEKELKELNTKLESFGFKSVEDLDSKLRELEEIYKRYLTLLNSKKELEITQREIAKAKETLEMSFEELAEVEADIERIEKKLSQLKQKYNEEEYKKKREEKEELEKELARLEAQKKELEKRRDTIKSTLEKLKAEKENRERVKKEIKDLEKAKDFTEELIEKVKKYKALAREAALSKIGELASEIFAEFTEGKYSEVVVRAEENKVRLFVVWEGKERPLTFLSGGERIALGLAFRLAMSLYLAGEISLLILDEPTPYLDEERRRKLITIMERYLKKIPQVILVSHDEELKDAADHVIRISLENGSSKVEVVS
- experiment: fluorescence polarization
property-label: pKd
Scale note: pKd = -log10(concentration in M).

The recorded pKd for 40-mer dsDNA (dsDNA) DNA 1: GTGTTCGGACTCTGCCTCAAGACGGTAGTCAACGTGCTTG DNA 2: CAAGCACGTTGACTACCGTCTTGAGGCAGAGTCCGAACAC is 5.97
